Assay: Pharmacokinetic profiles of fluorescein and FAM derivatives in mouse (LC/MS/MS of plasma)
Type: in vivo, 129SvPas mice
Conditions: 129SvPas, mouse, in vivo, iv, 20 nmol, t1/2 (monophasic profile)
recorded-metric: half-life (min)
Answer in min, number only, no unit symbol.

Recorded half-life of O=C1OC2(c3ccc(O)cc3Oc3cc(O)ccc32)c2ccccc21 , please. 4.6

###

Each entry below lists one item and its recorded Kd value.
Target: HSA (Homo sapiens, UniProt P02768)
Sequence (P02768 25-609): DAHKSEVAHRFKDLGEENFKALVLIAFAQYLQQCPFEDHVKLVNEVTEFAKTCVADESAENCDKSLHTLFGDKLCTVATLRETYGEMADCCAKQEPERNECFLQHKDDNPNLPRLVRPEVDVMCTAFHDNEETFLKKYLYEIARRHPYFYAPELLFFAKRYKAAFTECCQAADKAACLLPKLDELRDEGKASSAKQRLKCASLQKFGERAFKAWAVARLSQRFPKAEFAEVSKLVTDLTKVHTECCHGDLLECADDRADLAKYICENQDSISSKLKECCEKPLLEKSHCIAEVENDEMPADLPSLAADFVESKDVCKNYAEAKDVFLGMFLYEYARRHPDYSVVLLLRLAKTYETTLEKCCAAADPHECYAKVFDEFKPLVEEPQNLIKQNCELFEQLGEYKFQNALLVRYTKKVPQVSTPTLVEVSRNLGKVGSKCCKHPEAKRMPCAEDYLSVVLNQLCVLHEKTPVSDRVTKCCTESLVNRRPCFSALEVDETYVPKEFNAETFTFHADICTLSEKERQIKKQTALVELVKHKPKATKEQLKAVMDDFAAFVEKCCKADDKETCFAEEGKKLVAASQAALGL
Assay: Fluorescence polarisation with increasing amounts of HSA
Conditions: 100 nM compound, PBS, 1 h at 25° C., read-out: dissociation constant
Answer in µM, number only, no unit symbol.

| compound | units-text | Kd |
| --- | --- | --- |
| O=C(NCCc1ccccc1)c1ccc2c(c1)C(=O)OC21c2ccc(O)cc2Oc2cc(O)ccc21 [phenethylamine-FAM] | µM | 17 |

Switching to the query record.
Recorded Kd of O=C1OC2(c3ccc(O)cc3Oc3cc(O)ccc32)c2ccccc21 [fluorescein] , please. 76

Reference for the values: patent US8344177B2
